FYI, the data here is from patent US12084472B2.

- Study System: human TGR5 (Homo sapiens, UniProt Q8TDU6)
- Construct: expressed in transfected cells; host or cells: HEK293
- Sequence (Q8TDU6 whole entry): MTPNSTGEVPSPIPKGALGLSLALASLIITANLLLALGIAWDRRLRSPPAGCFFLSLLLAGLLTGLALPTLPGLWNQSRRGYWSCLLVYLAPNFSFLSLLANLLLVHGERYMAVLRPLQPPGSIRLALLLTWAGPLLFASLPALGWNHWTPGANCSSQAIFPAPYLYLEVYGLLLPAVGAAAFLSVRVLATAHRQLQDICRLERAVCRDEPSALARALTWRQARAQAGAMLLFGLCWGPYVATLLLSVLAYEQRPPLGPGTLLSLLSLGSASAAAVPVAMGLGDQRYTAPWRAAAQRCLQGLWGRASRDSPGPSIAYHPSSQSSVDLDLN
- Experiment Description: Cell-based TGR5 assay (cAMP generation, HTRF)
- Experimental Conditions: HEK293 cells stably transfected with human TGR5; cAMP by HTRF; 30 minutes at 37° C.; read-out: pEC50 Human TGR5 (converted)
Parameter: EC50

**Query** Give me measured EC50, please, for this compound: `COc1cc(C)c(CNC2(c3cnccc3-c3ccccc3OC3CC3)CC2)cc1C(C)C`
**Result** 126 to 1000 nM

**Query** Give me measured EC50, please, for this compound: `O=C(CCC1CCN(S(=O)(=O)c2ccc(Cl)c(COC3(c4cnccc4-c4ccccc4OC4CC4)CC3)c2)CC1)NC[C@H](O)[C@@H](O)[C@H](O)[C@H](O)CO`
**Result** < 100 nM

**Query** Give me measured EC50, please, for this compound: C[C@H](CCCCN)c1ccc(Cl)c(COC2(c3cnccc3-c3ccccc3OC3CC3)CC2)c1 (single isomer, unassigned)
**Result** 126 to 1000 nM

**Query** Give me measured EC50, please, for this compound: `CC(=O)N(CCCCc1cc(Cl)c(COC2(c3cnccc3-c3ccccc3OC3CC3)CC2)cc1Cl)C[C@H](O)[C@@H](O)[C@H](O)[C@H](O)CO`
**Result** < 100 nM

**Query** Give me measured EC50, please, for this compound: `NC(=O)N(Cc1cc(Cl)ccc1Cl)C1(c2cnccc2-c2ccccc2OC2CC2)CC1`
**Result** 1260 to 10000 nM

**Query** Give me measured EC50, please, for this compound: CC(CCCc1cc(Cl)c(COC2(c3cnccc3-c3ccccc3OC3CC3)CC2)cc1Cl)C(=O)NC[C@H](O)[C@@H](O)[C@H](O)[C@H](O)CO (some centres unmarked)
**Result** < 100 nM

**Query** Give me measured EC50, please, for this compound: `O=C(CC1CN(S(=O)(=O)c2ccc(Cl)c(COC3(c4cnccc4-c4ccccc4OC4CC4)CC3)c2)C1)NC[C@H](O)[C@@H](O)[C@H](O)[C@H](O)CO`
**Result** < 100 nM

**Query** Give me measured EC50, please, for this compound: `CN(C)CC(=O)N(CCCCc1cc(Cl)c(COC2(c3cnccc3-c3ccccc3OC3CC3)CC2)cc1Cl)C[C@H](O)[C@@H](O)[C@H](O)[C@H](O)CO`
**Result** < 100 nM
